Quick list: cytotoxicity at 10 µM per entry.
method: Toxicity liver stage against HepG2, at 10uM
Type: cell-based
Parameters: test concentration 10 uM, cell line HepG2-A16-CD81EGFP
settings: human, HepG2-A16-CD81EGFP cells; read-out: INHIBITION

compound | cytotoxicity at 10 µM
Cc1nn(C)cc1NC(=O)CC1CCN(C(=O)Cc2ccccc2)CC1 | 1.96%
Cc1nnc2n1CCN(CC(=O)NC(C)c1cccc3ccccc13)C2 (centres undefined) | 7.15%
CC(C#N)CNS(=O)(=O)c1ccc(F)c(Br)c1 (centres undefined) | -1.69%
CN(C)C1CCN(C(=O)c2cccc(S(=O)(=O)NCC3(C)COC3)c2)C1 (centres undefined) | -9.22%
CCC(O)CN1CCN(C(=O)c2cccn2Cc2cccnc2)CC1 (centres undefined) | -14.1%
CCNC(=O)c1ncn2c1CN(C)S(=O)(=O)c1ccccc1-2 | -10.1%
COc1cc(CSc2nnc(C)n2CC(N)=O)ccc1SC | -7.91%
Cc1ccnc(N2CCN(C3CCS(=O)(=O)C3)CC2)n1 (centres undefined) | -2.71%
CNC(=O)c1cnc(/C=C/c2cc(OC)c(OC)c(OC)c2)s1 | -15.5%
COCCN1C(=O)CCC12CCCN(C(=O)CC1CC1)CC2 (centres undefined) | 0.346%
O=C(c1ccccc1)N1CC[C@H]2C[C@H](c3nccs3)O[C@@H]2C1 | 8.39%
CC(=O)Cn1nc(-c2ccccc2F)ccc1=O | 0.477%
Cc1ccc(CN2CCc3c(C(=O)N(C)C)n[nH]c3C2)o1 | 2.14%
Cc1oc(-c2ccsc2)nc1CN1CC[C@@H]2CCCC[C@H]2C1 | 7.16%
O=C(COC1CCCCC1)N1CCN(C(=O)Cc2ccccn2)CC1 | -1.3%
CCOc1ccc(CCCC(=O)N2CCC(C(=O)NC)C2)cc1C (centres undefined) | 1.85%
CCN(Cc1nc(C(C)C)no1)Cc1cccs1 | -8.57%
CC(=O)NCC(=O)N1CCn2cc(CN3CCN(C)CC3)nc2C1 | -12.4%
Cc1nc(CN2CCN(C(=O)c3ccnc(N(C)C)c3)CC2)cs1 | 1.42%
O=C(c1cnc2n1CCCC2)N1CCCC1 | -10.6%
O=C(NCCN1CCOC1=O)c1cnc(-c2cccnc2)nc1 | 0.611%
Cc1noc(C)c1C(C)NC(=O)N1CCCN(C(=O)c2ccsc2)CC1 (centres undefined) | -0.77%
COc1c(C2CCCN2C(=O)c2nccnc2N)c(C)nn1C (centres undefined) | -5.55%
COc1ccccc1C(C)Nc1ncc(C(N)=O)cc1Cl (centres undefined) | 8.74%
